Listed compounds paired with reported MIC
test system: E. faecalis ATCC 29212; assay: MIC by agar dilution, E. faecalis ATCC 29212; assay type: cell-based; details: Enterococcus faecalis, ATCC29212, read-out: MIC
Structures can show the parent of a compound that is named as a salt.

# Compound, MIC (µg/mL)
records = [
    ("N=C(N)SCc1ccc(SC2=C(C(=O)O)N3C(=O)[C@@H](NC(=O)Cc4ccccc4)[C@H]3SC2)c(CSC(=N)N)c1 [Cmpd 138, trifluoroacetic acid salt]", 0.5),
    ("N=C(N)NCCSCC(=O)N[C@@H]1C(=O)N2C(C(=O)O)=C(Sc3ccc(CSC(=N)N)cc3CSC(=N)N)CS[C@H]12 [Cmpd 141, trifluoroacetic acid salt]", 1),
    ("CSCC(=O)N[C@@H]1C(=O)N2C(C(=O)O)=C(Sc3ccc(CSC(=N)N)cc3CSC(=N)N)CS[C@H]12 [Cmpd 140, trifluoroacetic acid salt]", 1),
    ("N=C(N)SCc1ccc(SC2=C(C(=O)O)N3C(=O)[C@@H](NC(=O)/C(=N\\O)c4csc(N)n4)[C@H]3SC2)c(CSC(=N)N)c1 [Cmpd 139, trifluoroacetic acid salt]", 0.125),
    ("N=C(N)SCCSCC(=O)N[C@@H]1C(=O)N2C(C(=O)O)=C(Sc3ccccc3CSC(=N)N)CS[C@H]12 [Cmpd 143, trifluoroacetic acid salt]", 0.5),
    ("N=C(N)SCCSCC(=O)N[C@@H]1C(=O)N2C(C(=O)O)=C(Sc3ccc(CSC(=N)N)cc3CSC(=N)N)CS[C@H]12 [Cmpd 142, trifluoroacetic acid salt]", 1),
]

###

test system: methicillin-susceptible S. aureus strain ATCC 13709; assay: murine model for lethal bacteremic peritonitis; type: in vivo, female Swiss-Webster mice; conditions: Staphylococcus aureus, ATCC13709, sc, 72 h, subcutaneous, two equal doses, S. aureus ATCC 13709 IP challenge, read-out: ED50
Where a name gives a salt, the structure may show the parent alone.
Overview of recorded ED50 for various compounds

# Compound, ED50
data = [
    ("N=C(N)NCCSCC(=O)N[C@@H]1C(=O)N2C(C(=O)O)=C(Sc3ccc(CSC(=N)N)cc3CSC(=N)N)CS[C@H]12 [Cmpd 141, trifluoroacetic acid salt]", "< 0.156 mg/kg"),
    ("N=C(N)SCc1ccc(SC2=C(C(=O)O)N3C(=O)[C@@H](NC(=O)/C(=N\\O)c4csc(N)n4)[C@H]3SC2)c(CSC(=N)N)c1 [Cmpd 139, trifluoroacetic acid salt]", "0.28 mg/kg"),
    ("CSCC(=O)N[C@@H]1C(=O)N2C(C(=O)O)=C(Sc3ccc(CSC(=N)N)cc3CSC(=N)N)CS[C@H]12 [Cmpd 140, trifluoroacetic acid salt]", "< 0.156 mg/kg"),
]

###

tested on: S. aureus 76 (Meth^R) (lac^+); test: MIC by agar dilution, S. aureus 76 (Meth^R) (lac^+); format: cell-based; settings: Staphylococcus aureus, read-out: MIC
Where a name gives a salt, the structure may show the parent alone.

# Compound, MIC
measured = [
    ("N=C(N)NCCSCC(=O)N[C@@H]1C(=O)N2C(C(=O)O)=C(Sc3ccc(CSC(=N)N)cc3CSC(=N)N)CS[C@H]12 [Cmpd 141, trifluoroacetic acid salt]", "8 µg/mL"),
    ("N=C(N)SCc1ccc(SC2=C(C(=O)O)N3C(=O)[C@@H](NC(=O)/C(=N\\O)c4csc(N)n4)[C@H]3SC2)c(CSC(=N)N)c1 [Cmpd 139, trifluoroacetic acid salt]", "4 µg/mL"),
    ("CSCC(=O)N[C@@H]1C(=O)N2C(C(=O)O)=C(Sc3ccc(CSC(=N)N)cc3CSC(=N)N)CS[C@H]12 [Cmpd 140, trifluoroacetic acid salt]", "8 µg/mL"),
    ("N=C(N)SCc1ccc(SC2=C(C(=O)O)N3C(=O)[C@@H](NC(=O)Cc4ccccc4)[C@H]3SC2)c(CSC(=N)N)c1 [Cmpd 138, trifluoroacetic acid salt]", "8 µg/mL"),
    ("N=C(N)SCCSCC(=O)N[C@@H]1C(=O)N2C(C(=O)O)=C(Sc3ccc(CSC(=N)N)cc3CSC(=N)N)CS[C@H]12 [Cmpd 142, trifluoroacetic acid salt]", "8 µg/mL"),
    ("N=C(N)SCCSCC(=O)N[C@@H]1C(=O)N2C(C(=O)O)=C(Sc3ccccc3CSC(=N)N)CS[C@H]12 [Cmpd 143, trifluoroacetic acid salt]", "16 µg/mL"),
]
